Reported values of Emax for individual entries
Target: human MC3R (Homo sapiens, UniProt P41968)
Construct: expressed in transfected cells; host or cells: HEK-293 cells stably expressing the GScAMP22F split-luciferase cAMP sensor (parent reporter line from Promega); MC3R clone generated in-house, G418 selection
Sequence (P41968 whole entry): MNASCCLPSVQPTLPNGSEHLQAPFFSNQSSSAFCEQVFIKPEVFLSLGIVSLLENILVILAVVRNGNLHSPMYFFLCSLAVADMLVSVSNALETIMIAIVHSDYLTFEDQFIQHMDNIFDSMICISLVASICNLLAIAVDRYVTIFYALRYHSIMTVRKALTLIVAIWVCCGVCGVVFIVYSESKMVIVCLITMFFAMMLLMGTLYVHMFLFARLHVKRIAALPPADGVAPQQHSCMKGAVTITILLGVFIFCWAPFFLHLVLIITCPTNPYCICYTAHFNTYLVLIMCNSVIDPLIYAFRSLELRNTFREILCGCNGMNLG
Test: split-luciferase cAMP sensor assay, agonist mode (measurement window 1), hMC3R
Type: cell-based
Settings: % maximal activation, agonist mode; read-out: MC3R cAMP % max activation
Positions of bridges follow the written chain, without caps; N, C: chain ends. Non-standard residues stand in square brackets, D forms with d. Residues, ends and D or L forms follow the SMILES beside them. 4Pal = N[C@@H](Cc1ccncc1)C(=O)O; Cit = NC(=O)NCCC[C@H](N)C(=O)O; Nle = CCCC[C@H](N)C(=O)O

// solved cases for Emax follow
CCCC[C@H](NC(=O)[C@H](CCCNC(=N)N)NC(C)=O)C(=O)N[C@H]1CSSC[C@@H](C(N)=O)NC(=O)[C@H](Cc2ccccc2)NC(=O)[C@H](CCCNC(=N)N)NC(=O)[C@@H](Cc2ccccc2)NC(=O)[C@H](CCCNC(=N)N)NC1=O [CTX-1622, Arg-Nle-cyclo(Cys-Arg-D-Phe-Arg-Phe-Cys)] (Ac-R[Nle]CR[dF]RFC-NH2; disulfide 3-8 (inferred)) | 100%
CC(=O)N[C@@H](CCCNC(=N)N)C(=O)N[C@H]1CSSC[C@@H](C(N)=O)NC(=O)[C@H](Cc2c[nH]c3ccccc23)NC(=O)[C@H](CCCNC(=N)N)NC(=O)[C@@H](Cc2ccccc2)NC(=O)[C@H](CCCNC(N)=O)NC(=O)CNC1=O [CTX-1294, Arg-cyclo(Cys-Gly-Cit-D-Phe-Arg-Trp-Cys)] (Ac-RCG[Cit][dF]RWC-NH2; disulfide 2-8 (inferred)) | 33%

[in] # query: Emax of entry CCCC[C@H](NC(=O)[C@H](CCCNC(=N)N)NC(C)=O)C(=O)N[C@H]1CSSC[C@@H](C(N)=O)NC(=O)[C@H](Cc2c[nH]c3ccccc23)NC(=O)[C@H](CCCNC(=N)N)NC(=O)[C@@H](Cc2ccccc2)NC(=O)[C@H](Cc2ccncc2)NC1=O [CTX-1621] (Ac-R[Nle]C[4Pal][dF]RWC-NH2; disulfide 3-8 (inferred))
[out] 15%

[in] Now give it for CC(=O)N[C@H]1CSSC[C@@H](C(N)=O)NC(=O)[C@H](Cc2c[nH]c3ccccc23)NC(=O)[C@H](CCCNC(=N)N)NC(=O)[C@@H](Cc2ccccc2)NC(=O)[C@H](Cc2c[nH]cn2)NC(=O)[C@@H](C)NC1=O too.
[out] 89%

[in] Same read-out for CC[C@H]1NC(=O)[C@@H](NC(=O)[C@H](CCCNC(=N)N)NC(C)=O)CSSC[C@@H](C(N)=O)NC(=O)[C@H](Cc2c[nH]c3ccccc23)NC(=O)[C@H](CCCNC(=N)N)NC(=O)[C@@H](Cc2ccccc2)NC(=O)[C@H](Cc2c[nH]cn2)NC1=O ?
[out] 97%

[in] One more compound: CC(=O)N[C@@H](CCCNC(=N)N)C(=O)N[C@H]1CSSC[C@@H](C(N)=O)NC(=O)[C@H](Cc2c[nH]c3ccccc23)NC(=O)[C@H](CCCNC(=N)N)NC(=O)[C@@H](Cc2ccccc2)NC(=O)[C@H](CCCNC(=N)N)NC(=O)[C@H](C)NC1=O [CTX-1267, Arg-cyclo(Cys-Ala-Arg-D-Phe-Arg-Trp-Cys)] (Ac-RCAR[dF]RWC-NH2; disulfide 2-8)
[out] 40%
